- study-target: AHR (Mus musculus)
- Sequence (P30561 1-848 P471L/N533S/M589L): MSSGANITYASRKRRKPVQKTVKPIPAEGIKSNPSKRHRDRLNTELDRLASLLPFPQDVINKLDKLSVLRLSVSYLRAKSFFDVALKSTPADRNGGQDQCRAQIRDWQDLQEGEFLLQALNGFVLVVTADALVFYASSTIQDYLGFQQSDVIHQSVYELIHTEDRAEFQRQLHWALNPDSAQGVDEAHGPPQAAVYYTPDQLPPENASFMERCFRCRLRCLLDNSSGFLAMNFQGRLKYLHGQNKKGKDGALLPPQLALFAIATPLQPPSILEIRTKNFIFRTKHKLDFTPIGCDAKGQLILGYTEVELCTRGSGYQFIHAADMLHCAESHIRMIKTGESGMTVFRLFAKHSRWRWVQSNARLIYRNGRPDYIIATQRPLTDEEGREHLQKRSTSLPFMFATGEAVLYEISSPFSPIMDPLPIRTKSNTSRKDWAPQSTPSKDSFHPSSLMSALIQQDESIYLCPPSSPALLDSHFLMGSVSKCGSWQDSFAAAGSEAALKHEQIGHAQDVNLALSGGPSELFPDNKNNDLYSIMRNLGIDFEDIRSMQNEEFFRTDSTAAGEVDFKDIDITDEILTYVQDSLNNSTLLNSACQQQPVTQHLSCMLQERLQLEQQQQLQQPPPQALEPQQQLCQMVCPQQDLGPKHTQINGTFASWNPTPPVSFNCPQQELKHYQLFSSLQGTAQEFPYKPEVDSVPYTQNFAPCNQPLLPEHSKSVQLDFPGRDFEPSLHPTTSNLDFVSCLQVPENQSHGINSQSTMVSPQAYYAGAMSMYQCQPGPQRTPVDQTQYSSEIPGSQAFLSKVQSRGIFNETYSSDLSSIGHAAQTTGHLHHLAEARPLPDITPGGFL
- method-notes: In vitro assay 3: antagonism in mouse cell line (AHR transactivation, firefly luciferase reporter, kynurenic acid prestimulated)
- Format: cell-based
- protocol-conditions: Hepa 1c1c7 cells, 200 μM kynurenic acid, 20 hours, firefly luciferase reporter, read-out: AHR Antagonism Mouse IC50
measure-name: IC50 (nM)

// worked examples, IC50 included
{"compound": "CC(C)S(=O)(=O)c1cccc2c1nc(N[C@@H]1CCCCNC1=O)n1nc(-c3cnn(C)c3)nc21 [Example 845]", "study-target": "AHR (Mus musculus)", "value-unit": "nM", "IC50": 247}
{"compound": "Cc1nn(C)cc1-c1nc2c3cccc(Cl)c3nc(N[C@@H]3CNCCNC3=O)n2n1 [Example 951]", "study-target": "AHR (Mus musculus)", "value-unit": "nM", "IC50": 5.44}
{"compound": "COCCN(C)C(=O)[C@@H](C)Nc1nc2c(C(F)(F)F)cccc2c2nc(-c3cnn(C)c3)nn12 [Example 878]", "study-target": "AHR (Mus musculus)", "value-unit": "nM", "IC50": 43.3}

a = COc1ccc(-c2nc3c4cccc(OC5CC5)c4nc(N[C@@H]4CCCCNC4=O)n3n2)cc1 [Example 999]
b = CCS(=O)(=O)c1cccc2c1nc(N[C@@H]1CNCCNC1=O)n1nc(-c3ccc(OC)cc3)nc21 [Example 940]
c = Cn1cc(-c2nc3c4cccc(Br)c4nc(N[C@H]4CS(=N)(=O)CCNC4=O)n3n2)cn1 (single isomer, unassigned) [Example 857]
d = COc1ccc(-c2nc3c4cccc(Br)c4nc(N[C@H](C)C(=O)N4CCN(C(=O)OC(C)(C)C)CC4)n3n2)cc1 [Example 883]
Request: Order the 4 compounds from highest to lowest IC50. List the labels according to the requested ordering.
Response: c, b, d, a

Reference for the values: patent US20230113037A1
